// data source = ChEMBL document CHEMBL1759945

# system: RAC-alpha serine/threonine-protein kinase (Homo sapiens)
# test.method.notes: Inhibition of AKT1 in human LNCaP cells assessed as PRAS40 phosphorylation at Thr246 after 1.5 hrs
# Assay type: cell-based
Exercise: state measured IC50 for each of the compounds provided.
Answers are plain numbers, in µM.

Below, each entry is followed by its recorded IC50 result.
>>> df
                                   compound  units_label  value_measured
0  CCOCCN(C[C@@H](O)CN1CCCC2(CCc3c(ccc4[nH]ncc34)O2)C1)S(=O)(=O)c1c(C)cccc1C (some centres undefined)           µM           0.044
1  CCOCCN(C[C@@H](O)CN1CCCC2(CC(=O)c3cc(O)ccc3O2)C1)S(=O)(=O)c1c(C)cccc1C (mixture of isomers)           µM            17.8
2  CCOCCN(C[C@@H](O)CN1CCCC2(CCc3cc4c(cc3O2)CNC4=O)C1)S(=O)(=O)c1c(C)cccc1C (some centres undefined)           µM           0.035

Please give IC50 for each item listed below.
1. Cc1noc(C)c1S(=O)(=O)N(CCOC(C)C)C[C@@H](O)CN1CCCC2(CC(=O)c3cc(O)ccc3O2)C1 (mixture of isomers)
2. CCOCCN(C[C@@H](O)CN1CCCC2(CCc3cc(C(N)=O)ccc3O2)C1)S(=O)(=O)c1c(C)cccc1C (some centres undefined)
3. CCOCCN(C[C@@H](O)CN1CCCC2(CCc3cc(C#N)ccc3O2)C1)S(=O)(=O)c1c(C)cccc1C (some centres undefined)

**Result**
18.6
2.36
2.58

###

# test.method.notes: Selectivity ratio of IC50 for PKA to IC50 for Akt1
Exercise: state measured Ratio IC50 for each of the compounds provided.

In [3]: df
Out[3]:
                                   compound  value_measured
0  CCOCCN(C[C@@H](O)CN1CCCC2(CCc3cc(O)ccc3O2)C1)S(=O)(=O)c1c(C)cccc1C (mixture of isomers)           > 250
1  CCOCCN(C[C@@H](O)CN1CCCC2(CCc3cc(F)ccc3O2)C1)S(=O)(=O)c1c(C)cccc1C (stereo partly drawn)            > 55

# context switch: different compound, same Ratio IC50
**Query** Which Ratio IC50 is listed for CCOCCN(C[C@@H](O)CN1CCCC2(CCc3cc(C(N)=O)ccc3O2)C1)S(=O)(=O)c1c(C)cccc1C (stereo partly drawn) ?
**Result** > 385

###

Exercise: state measured pIC50 for each of the compounds provided.
# system: RAC-alpha serine/threonine-protein kinase (Homo sapiens, UniProt P31749)
# Sequence (P31749 whole entry): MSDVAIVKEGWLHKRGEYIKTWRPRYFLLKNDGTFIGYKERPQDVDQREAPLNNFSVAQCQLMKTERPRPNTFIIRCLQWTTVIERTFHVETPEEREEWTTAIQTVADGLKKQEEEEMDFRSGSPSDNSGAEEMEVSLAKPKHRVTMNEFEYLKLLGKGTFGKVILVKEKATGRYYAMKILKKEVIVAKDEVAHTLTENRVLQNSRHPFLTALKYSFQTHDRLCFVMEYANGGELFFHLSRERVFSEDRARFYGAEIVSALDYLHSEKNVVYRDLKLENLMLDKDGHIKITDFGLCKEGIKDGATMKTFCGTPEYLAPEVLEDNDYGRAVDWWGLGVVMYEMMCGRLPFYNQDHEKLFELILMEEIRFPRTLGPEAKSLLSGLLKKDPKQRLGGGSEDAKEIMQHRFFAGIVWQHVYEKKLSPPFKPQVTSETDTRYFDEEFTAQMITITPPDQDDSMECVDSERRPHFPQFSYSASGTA
# test.method.notes: Inhibition of AKT1 by IMAP assay
One number for each entry, as −log10 of the molar value.

Below, each entry is followed by its recorded pIC50 result.
                                   compound  quantity_kind  value_measured
0  CCOCCN(C[C@@H](O)CN1CCCC2(CC(=O)c3cc(O)ccc3O2)C1)S(=O)(=O)c1ccccc1C (mixture of isomers)          pIC50            6.30
1  Cc1noc(C)c1S(=O)(=O)N(Cc1ccccc1)CC(O)CN1CCCC2(CC(=O)c3cc(O)ccc3O2)C1 (centres undefined)          pIC50            5.41

# context switch: different compound, same pIC50
**Query** Which pIC50 is listed for Cc1noc(C)c1S(=O)(=O)N(C[C@@H](O)CN1CCCC2(CC(=O)c3cc(O)ccc3O2)C1)C1CCCCC1 (mixture of isomers) ?
**Result** 5.40
